system: HepG2; test: cytotoxicity call (relative viability < 0.9); details: 10 µM
The campaign covered roughly 39,000 compounds. About 3,300 (8.5%) were called active. The entries come from a sample that favours actives as a whole.
Outcome field: choose from TRUE for active, FALSE for inactive

Exam item: For "C[C@H]1CN([C@@H](C)CO)C(=O)Cc2cc(NC(=O)Nc3cccc4c3CCCC4)ccc2O[C@H]1CN(C)S(=O)(=O)c1ccc(Oc2ccccc2)cc1" , which call appears in the assay record?
Marked response: TRUE

Exam item: State the result this test recorded for "O=C(N[C@H]1CC[C@H](CCNS(=O)(=O)c2ccc(F)cc2)O[C@H]1CO)C1CC1" .
Marked response: FALSE

Exam item: // param item: "C[C@@H]1CCCCO[C@@H](CN(C)Cc2ccccc2)[C@H](C)CN([C@@H](C)CO)C(=O)c2cc(NC(=O)Nc3ccc(C(F)(F)F)cc3)ccc2O1" ; yields the recorded call
Marked response: TRUE

Exam item: Write down the call the test reported for this compound. Item: "Cc1ccc(S(=O)(=O)N(C)C[C@@H]2Oc3ncc(C#CC4(O)CCCC4)cc3C(=O)N([C@@H](C)CO)C[C@H]2C)cc1"
Marked response: FALSE

Exam item: Could you kindly confirm the outcome this assay logged for "CN(C)CCOC(=O)COc1ccc(Cl)cc1.Cl" ?
Marked response: FALSE

Exam item: Test call for this compound, please: "O.O=C([O-])CC(O)(CC(=O)[O-])C(=O)[O-].[Li+].[Li+].[Li+]"
Marked response: FALSE

Exam item: // return assay outcome for "C[C@@H]1OC2=C(Cl)C(=O)N3CCC[C@H]3C[C@@]21O"
Marked response: FALSE

Exam item: Give the logged outcome of this assay for the following compound: "C[C@@H]1CCCCO[C@H](CN(C)Cc2ccccc2)[C@H](C)CN([C@@H](C)CO)C(=O)c2cc(NC(=O)Nc3ccc(C(F)(F)F)cc3)ccc2O1"
Marked response: TRUE

Exam item: Could you kindly confirm the outcome this assay logged for "CCCCc1nc(-c2ccc(OCCCN(CC)CC)cc2)cn1-c1ccc(Oc2ccc(Cl)cc2)cc1" ?
Marked response: TRUE

Exam item: Field: outcome | Entry: "COc1ccc(CN(C)C[C@H]2OCCCC[C@@H](C)Oc3ccc(NC(=O)c4ccccc4)cc3C(=O)N([C@@H](C)CO)C[C@H]2C)cc1"
Marked response: FALSE

Exam item: Answer briefly: the call reported for "CCS(=O)(=O)NCC[C@@H]1CC[C@@H](NS(=O)(=O)c2ccccc2C)[C@H](CO)O1" in this assay.
Marked response: FALSE

Exam item: I would be grateful if you could indicate the recorded call for "C[C@H]1CCCCO[C@@H](CN(C)Cc2ccccc2)[C@@H](C)CN([C@@H](C)CO)C(=O)c2cc(NC(=O)Nc3ccc(C(F)(F)F)cc3)ccc2O1" .
Marked response: TRUE

Exam item: Called result for "C[C@@H]1CN([C@H](C)CO)C(=O)c2cc(NC(=O)Nc3ccc(C(F)(F)F)cc3)ccc2O[C@@H](C)CCCCO[C@H]1CN(C)Cc1ccccc1"
Marked response: TRUE

Exam item: Outcome? "COc1ccc(NC(=O)N(C)C[C@@H]2OCCCC[C@@H](C)Oc3ccc(NC(=O)Nc4cccc5ccccc45)cc3C(=O)N([C@H](C)CO)C[C@@H]2C)cc1"
Marked response: FALSE

Exam item: Identify the outcome logged in this assay for the compound shown: "Cc1ccc(S(=O)(=O)N(C)C[C@@H]2Oc3c(NC(=O)c4ccncc4)cccc3C(=O)N([C@H](C)CO)C[C@H]2C)cc1"
Marked response: FALSE
